- Measured On: segments of rabbit duodenum (Oryctolagus cuniculus, UniProt G1T803)
- Sequence (G1T803 1-400): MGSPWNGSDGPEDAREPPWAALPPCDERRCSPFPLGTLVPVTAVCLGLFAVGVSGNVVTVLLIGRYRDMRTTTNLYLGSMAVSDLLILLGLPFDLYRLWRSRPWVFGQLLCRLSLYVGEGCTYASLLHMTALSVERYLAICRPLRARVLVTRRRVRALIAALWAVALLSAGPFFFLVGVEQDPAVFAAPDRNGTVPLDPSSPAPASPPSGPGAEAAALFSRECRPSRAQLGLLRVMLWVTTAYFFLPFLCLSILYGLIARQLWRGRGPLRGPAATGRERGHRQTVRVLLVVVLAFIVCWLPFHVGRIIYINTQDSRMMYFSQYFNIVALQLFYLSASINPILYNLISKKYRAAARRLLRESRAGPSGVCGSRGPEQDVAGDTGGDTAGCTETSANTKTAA
- Assay Overview: Rabbit duodenal smooth muscle strip tissue bath assay
- Format: cell-based
- Assay Conditions: negative logarithm of the dose giving 50% of the maximal response to motilin; isotonic contraction of rabbit duodenum segments
Square brackets hold non-standard residues; d marks the D form. Peptide text beside a SMILES is read from it. * marks the point of attachment. X1 = C[N+](C)(C)[C@@H](Cc1ccccc1)C(=O)*; X2 = C#CCN(C)[C@@H](Cc1ccccc1)C(=O)*; NMeF = CN[C@@H](Cc1ccccc1)C(=O)O; dCha = N[C@H](CC1CCCCC1)C(=O)O
Measured Metric: pEC50
Give a plain numeric answer without units written out.

Q: What does the record list as pEC50 for CC[C@H](C)[C@H](NC(=O)[C@H](C)NC(=O)[C@@H](NC(=O)[C@H](Cc1ccccc1)NC)C(C)C)C(=O)N[C@@H](Cc1ccccc1)C(=O)N[C@H](C(=O)N[C@@H](Cc1ccc(O)cc1)C(=O)NCC(=O)N[C@@H](CCC(=O)O)C(=O)N[C@@H](CC(C)C)C(=O)N[C@@H](CCC(N)=O)C(=O)N[C@H](CCCNC(=N)N)C(=O)N[C@@H](CC(C)C)C(=O)N[C@@H](CCCCN)C(N)=O)[C@@H](C)O (H-[NMeF]VAIFTYGELQ[dR]LK-NH2) ?
Ans: 7.72

Q: What does the record list as pEC50 for C#CCN(C)[C@@H](Cc1ccccc1)C(=O)N[C@H](C(=O)N1CCC[C@H]1C(=O)N[C@H](C(=O)N[C@@H](Cc1ccccc1)C(=O)N[C@H](C(=O)N[C@@H](Cc1ccc(O)cc1)C(=O)NCC(=O)N[C@@H](CCC(=O)O)C(=O)N[C@@H](CC(C)C)C(=O)N[C@@H](CCC(N)=O)C(=O)N[C@@H](CCCNC(=N)N)C(=O)N[C@@H](CC(C)C)C(=O)N[C@@H](CCC(N)=O)C(N)=O)[C@@H](C)O)[C@@H](C)CC)C(C)C (X2-VPIFTYGELQRLQ-NH2) ?
Ans: 7.57

Q: What does the record list as pEC50 for CC[C@H](C)[C@H](NC(=O)[C@H](C)NC(=O)[C@@H](NC(=O)[C@H](N)CC1CCCCC1)C(C)C)C(=O)N[C@@H](Cc1ccccc1)C(=O)N[C@H](C(=O)N[C@@H](Cc1ccc(O)cc1)C(=O)NCC(=O)N[C@@H](CCC(=O)O)C(=O)N[C@@H](CC(C)C)C(=O)N[C@@H](C)C(=O)N[C@H](CCCNC(=N)N)C(=O)N[C@@H](CC(C)C)C(=O)N[C@H](CCCCN)C(N)=O)[C@@H](C)O (H-[dCha]VAIFTYGELA[dR]L[dK]-NH2) ?
Ans: 7.25

Q: What does the record list as pEC50 for CC[C@H](C)[C@H](NC(=O)[C@@H]1CCCN1C(=O)[C@@H](NC(=O)[C@H](Cc1ccccc1)NC)C(C)C)C(=O)N[C@@H](Cc1ccccc1)C(=O)N[C@H](C(=O)N[C@@H](Cc1ccc(O)cc1)C(=O)NCC(=O)N[C@@H](CCC(=O)O)C(=O)N[C@@H](CC(C)C)C(=O)N[C@@H](C)C(=O)N[C@H](CCCNC(=N)N)C(=O)N[C@@H](CC(C)C)C(=O)N[C@@H](CCCCN)C(N)=O)[C@@H](C)O (H-[NMeF]VPIFTYGELA[dR]LK-NH2) ?
Ans: 8.01

Q: What does the record list as pEC50 for CC[C@H](C)[C@H](NC(=O)[C@@H]1CCCN1C(=O)[C@@H](NC(=O)[C@H](Cc1ccccc1)[N+](C)(C)C)C(C)C)C(=O)N[C@@H](Cc1ccccc1)C(=O)N[C@H](C(=O)N[C@@H](Cc1ccc(O)cc1)C(=O)NCC(=O)N[C@@H](CCC(=O)O)C(=O)N[C@@H](CC(C)C)C(=O)N[C@@H](C)C(=O)N[C@H](CCCNC(=N)N)C(=O)N[C@@H](CC(C)C)C(=O)N[C@@H](CCCCN)C(N)=O)[C@@H](C)O (X1-VPIFTYGELA[dR]LK-NH2) ?
Ans: 7.64

---

- Measured On: segments of rabbit duodenum (Oryctolagus cuniculus, UniProt G1T803)
- Assay Overview: Rabbit duodenal smooth muscle strip tissue bath assay
- Format: cell-based
- Assay Conditions: negative logarithm of the dose giving 50% of the maximal response to motilin; isotonic contraction of rabbit duodenum segments
Square brackets hold non-standard residues; d marks the D form. Peptide text beside a SMILES is read from it. * marks the point of attachment. X1 = C[N+](C)(C)[C@@H](Cc1ccccc1)C(=O)*; NMeF = CN[C@@H](Cc1ccccc1)C(=O)O
Measured Metric: pEC50

Q: What does the record list as pEC50 for CC[C@H](C)[C@H](NC(=O)[C@H](C)NC(=O)[C@@H](NC(=O)[C@H](Cc1ccccc1)NC)C(C)C)C(=O)N[C@@H](Cc1ccccc1)C(=O)N[C@H](C(=O)N[C@@H](Cc1ccc(O)cc1)C(=O)NCC(=O)N[C@@H](CCC(=O)O)C(=O)N[C@@H](CC(C)C)C(=O)N[C@@H](CCC(N)=O)C(=O)N[C@H](CCCNC(=N)N)C(=O)N[C@@H](CC(C)C)C(=O)N[C@H](CCC(N)=O)C(N)=O)[C@@H](C)O (H-[NMeF]VAIFTYGELQ[dR]L[dQ]-NH2) ?
Ans: 8.07

Q: What does the record list as pEC50 for CC[C@H](C)[C@H](NC(=O)[C@@H]1CCCN1C(=O)[C@@H](NC(=O)[C@H](Cc1ccccc1)[N+](C)(C)C)C(C)C)C(=O)N[C@@H](Cc1ccccc1)C(=O)N[C@H](C(=O)N[C@@H](Cc1ccc(O)cc1)C(=O)NCC(=O)N[C@@H](CCC(=O)O)C(=O)N[C@@H](CC(C)C)C(=O)N[C@@H](CCC(N)=O)C(=O)N[C@H](CCCNC(=N)N)C(=O)N[C@@H](CC(C)C)C(=O)N[C@@H](CCC(N)=O)C(=O)O)[C@@H](C)O (X1-VPIFTYGELQ[dR]LQ-OH) ?
Ans: 7.52

Q: What does the record list as pEC50 for CC[C@H](C)[C@H](NC(=O)[C@@H]1CCCN1C(=O)[C@@H](NC(=O)[C@@H](N)Cc1ccccc1)C(C)C)C(=O)N[C@@H](Cc1ccccc1)C(=O)N[C@H](C(=O)N[C@@H](Cc1ccc(O)cc1)C(=O)NCC(=O)N[C@@H](CCC(=O)O)C(=O)N[C@@H](CC(C)C)C(=O)N[C@@H](CCC(N)=O)C(=O)N[C@H](C)C(=O)N[C@@H](CC(C)C)C(=O)N[C@@H](CCC(N)=O)C(=O)O)[C@@H](C)O [[D-Ala^12, Leu^13]pMOT(1-14)] (H-FVPIFTYGELQ[dA]LQ-OH) ?
Ans: 7.29

Q: What does the record list as pEC50 for CC[C@H](C)[C@H](NC(=O)[C@H](C)NC(=O)[C@@H](NC(=O)[C@H](Cc1ccccc1)[N+](C)(C)C)C(C)C)C(=O)N[C@@H](Cc1ccccc1)C(=O)N[C@H](C(=O)N[C@@H](Cc1ccc(O)cc1)C(=O)NCC(=O)N[C@@H](CCC(=O)O)C(=O)N[C@@H](CC(C)C)C(=O)N[C@@H](CCC(N)=O)C(=O)N[C@H](CCCNC(=N)N)C(=O)N[C@@H](CC(C)C)C(=O)N[C@@H](CCCCN)C(N)=O)[C@@H](C)O (X1-VAIFTYGELQ[dR]LK-NH2) ?
Ans: 7.32

Q: What does the record list as pEC50 for CC[C@H](C)[C@H](NC(=O)[C@@H]1CCCN1C(=O)[C@@H](NC(=O)[C@H](Cc1ccccc1)NC)C(C)C)C(=O)N[C@@H](Cc1ccccc1)C(=O)N[C@H](C(=O)N[C@@H](Cc1ccc(O)cc1)C(=O)NCC(=O)N[C@@H](CCC(=O)O)C(=O)N[C@@H](CC(C)C)C(=O)N[C@@H](C)C(=O)N[C@H](CCCNC(=N)N)C(=O)N[C@@H](CC(C)C)C(=O)N[C@H](CCC(N)=O)C(N)=O)[C@@H](C)O (H-[NMeF]VPIFTYGELA[dR]L[dQ]-NH2) ?
Ans: 7.97

---

- Measured On: motilin receptor (Oryctolagus cuniculus)
- Construct: from tissue; host or cells: rabbit antral smooth muscle membranes
- Sequence (G1T803 1-400): as above
- Assay Overview: Determination of motilin receptor binding affinity (displacement of [125I-Tyr7, Nle13]motilin(porcine))
- Set-up: species or system rabbit
- Assay Conditions: negative logarithm of the concentration displacing 50% of [125I-Tyr7, Nle13]motilin(porcine) from rabbit antral smooth muscle membranes; read-out: pIC50 (converted)
- Description: The motilin receptor binding affinity of the peptides of this invention was determined by using the general procedure of Bormans, Peelers and Vantrappen, Regul. […] Fitting was performed using the iterative least-squares procedure of the SAS-software package (SAS Institute, Inc., Cary, N.C., USA).
Square brackets hold non-standard residues; d marks the D form. Peptide text beside a SMILES is read from it. * marks the point of attachment. X3 = C#CC[N+](C)(C)[C@@H](Cc1ccccc1)C(=O)*; NMeF = CN[C@@H](Cc1ccccc1)C(=O)O
For each record, write down the corresponding IC50.
Units required after the number.

Q: What does the record list as IC50 for C#CC[N+](C)(C)[C@@H](Cc1ccccc1)C(=O)N[C@H](C(=O)N1CCC[C@H]1C(=O)N[C@H](C(=O)N[C@@H](Cc1ccccc1)C(=O)N[C@H](C(=O)N[C@@H](Cc1ccc(O)cc1)C(=O)NCC(=O)N[C@@H](CCC(=O)O)C(=O)N[C@@H](CC(C)C)C(=O)N[C@@H](CCC(N)=O)C(=O)N[C@@H](CCCNC(=N)N)C(=O)N[C@@H](CC(C)C)C(=O)N[C@@H](CCC(N)=O)C(N)=O)[C@@H](C)O)[C@@H](C)CC)C(C)C (X3-VPIFTYGELQRLQ-NH2) ?
Ans: 2.14 nM

Q: What does the record list as IC50 for CC[C@H](C)[C@H](NC(=O)[C@@H]1CCCN1C(=O)[C@@H](NC(=O)[C@H](Cc1ccccc1)NC)C(C)C)C(=O)N[C@@H](Cc1ccccc1)C(=O)N[C@H](C(=O)N[C@@H](Cc1ccc(O)cc1)C(=O)NCC(=O)N[C@@H](CCC(=O)O)C(=O)N[C@@H](CC(C)C)C(=O)N[C@@H](CCC(N)=O)C(=O)N[C@H](CCCNC(=N)N)C(=O)N[C@@H](CC(C)C)C(=O)N[C@@H](CCC(N)=O)C(=O)O)[C@@H](C)O [[N-MePhe^1, D-Arg^12, Leu^13]pMOT(1-14)] (H-[NMeF]VPIFTYGELQ[dR]LQ-OH) ?
Ans: 1.91 nM
